- Experimental Target: PI3Kα H1047R (T47D cells) (Homo sapiens, UniProt P42336, H1047R)
- Construct: endogenous in cells; host or cells: T47D cells
- Sequence (P42336 whole entry H1047R): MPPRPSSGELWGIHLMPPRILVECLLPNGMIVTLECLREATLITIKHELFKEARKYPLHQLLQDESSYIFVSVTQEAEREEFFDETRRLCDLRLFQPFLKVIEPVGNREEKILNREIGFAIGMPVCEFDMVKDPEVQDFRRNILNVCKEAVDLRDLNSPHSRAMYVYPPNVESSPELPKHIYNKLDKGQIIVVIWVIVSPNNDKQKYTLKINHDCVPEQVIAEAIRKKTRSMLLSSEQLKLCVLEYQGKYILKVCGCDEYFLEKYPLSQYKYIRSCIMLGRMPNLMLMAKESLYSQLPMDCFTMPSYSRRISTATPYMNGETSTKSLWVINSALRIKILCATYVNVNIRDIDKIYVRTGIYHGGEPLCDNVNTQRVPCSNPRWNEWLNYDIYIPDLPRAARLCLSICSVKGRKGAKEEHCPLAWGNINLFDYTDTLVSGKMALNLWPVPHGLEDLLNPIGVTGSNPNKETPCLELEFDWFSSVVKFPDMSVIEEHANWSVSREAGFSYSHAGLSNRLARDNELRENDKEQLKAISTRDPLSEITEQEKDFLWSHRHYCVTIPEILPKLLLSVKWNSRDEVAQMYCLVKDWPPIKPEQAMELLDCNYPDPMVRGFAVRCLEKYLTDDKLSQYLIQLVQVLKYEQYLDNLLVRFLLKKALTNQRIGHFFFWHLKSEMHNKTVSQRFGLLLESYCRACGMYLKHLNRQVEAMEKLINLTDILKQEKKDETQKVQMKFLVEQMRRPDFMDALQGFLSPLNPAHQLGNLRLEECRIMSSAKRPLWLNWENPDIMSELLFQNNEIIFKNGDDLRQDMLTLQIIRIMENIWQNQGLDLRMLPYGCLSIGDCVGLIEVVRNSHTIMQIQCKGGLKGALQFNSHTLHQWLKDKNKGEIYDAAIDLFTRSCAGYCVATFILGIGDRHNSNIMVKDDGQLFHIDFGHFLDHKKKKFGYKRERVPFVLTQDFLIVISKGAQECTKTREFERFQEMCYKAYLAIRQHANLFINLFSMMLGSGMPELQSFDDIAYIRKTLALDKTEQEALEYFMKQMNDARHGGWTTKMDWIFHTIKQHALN
- Sequence (P27986 whole entry partner): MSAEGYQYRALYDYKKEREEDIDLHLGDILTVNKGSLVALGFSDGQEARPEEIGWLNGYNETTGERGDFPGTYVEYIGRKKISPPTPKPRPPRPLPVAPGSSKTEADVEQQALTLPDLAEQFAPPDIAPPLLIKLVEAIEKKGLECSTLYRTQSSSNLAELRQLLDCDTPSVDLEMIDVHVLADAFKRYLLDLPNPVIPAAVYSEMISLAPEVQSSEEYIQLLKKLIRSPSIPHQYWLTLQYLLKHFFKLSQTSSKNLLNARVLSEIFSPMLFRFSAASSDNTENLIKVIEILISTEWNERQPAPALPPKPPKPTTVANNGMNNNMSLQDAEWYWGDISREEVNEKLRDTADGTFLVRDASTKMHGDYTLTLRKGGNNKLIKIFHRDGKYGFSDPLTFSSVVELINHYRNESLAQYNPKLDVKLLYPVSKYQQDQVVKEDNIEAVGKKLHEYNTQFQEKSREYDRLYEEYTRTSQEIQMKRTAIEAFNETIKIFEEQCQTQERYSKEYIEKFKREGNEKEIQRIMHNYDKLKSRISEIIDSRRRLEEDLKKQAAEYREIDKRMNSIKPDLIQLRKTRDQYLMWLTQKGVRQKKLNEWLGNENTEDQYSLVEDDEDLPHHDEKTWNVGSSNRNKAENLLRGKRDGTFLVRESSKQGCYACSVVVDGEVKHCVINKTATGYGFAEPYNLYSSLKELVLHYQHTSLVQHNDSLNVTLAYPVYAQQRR
- Test: PI3Kα cellular assay: pAKT HTRF in T47D cells after EGF stimulation
- Assay type: cell-based
- Measurement Setup: selectivity T47D (H1047R) over SKBR3 (WT), pAKT HTRF
Experimental Readout: T47D pAKT S473 HTRF IC50 (H1047R): T47D (H1047R) selectivity over SKBR3 (WT)

| Molecule | Value Reported |
| --- | --- |
| Cc1cc(C(C)Nc2ccccc2C(=O)O)c2nc(N3CCSCC3)cc(=O)n2c1 (stereo not drawn) [Compound 239] | C (C denotes ≤5-fold) |
| Cc1cc([C@@H](C)Nc2ccccc2C(=O)O)c2nc(-c3cnc(C)c(Cl)c3)cc(=O)n2c1 | A (A denotes >20-fold) |
| CC[C@@H](Nc1ccccc1C(=O)O)c1cc(C)cn2c(=O)cc(N3CCOCC3)nc12 | C (C denotes ≤5-fold) |
| Cc1cc([C@H](C)Nc2ccccc2-c2ccnnc2)c2nc(N3CCOCC3)cc(=O)n2c1 | C (C denotes ≤5-fold) |
| Cc1cc(C(C)Nc2ccccc2C(=O)O)c2nc(N3Cc4ccccc4C3)c(C)c(=O)n2c1.O=C(O)C(F)(F)F (stereo not drawn) | A (A denotes >20-fold) |
| Cc1cc([C@H](C)Nc2ccccc2S(N)(=O)=O)c2nc(N3Cc4cccnc4C3)c(C)c(=O)n2c1 | A (A denotes >20-fold) |
| Cc1cc(C(C)Nc2ccccc2C(N)=O)c2nc(-c3cccnc3)c(C)c(=O)n2c1 (stereo not drawn) | A (A denotes >20-fold) |
| Cc1cc([C@H](C)Nc2ccccc2S(N)(=O)=O)c2nc([C@@H]3CCCOC3)c(C)c(=O)n2c1 | A (A denotes >20-fold) |
| Cc1cc(C(C)Nc2ccccc2C(=O)O)c2nc(N3CC(Cl)C3)cc(=O)n2c1 (stereo not drawn) | A (A denotes >20-fold) |
| Cc1cc([C@@H](C)Nc2ccccc2C(N)=O)c2nc(-c3ccnc(C4CC4)c3)c(C)c(=O)n2c1 | C (C denotes ≤5-fold) |
| Cc1cc([C@H](C)Nc2ccccc2-c2ccnnc2)c2nc(-c3cccnc3)c(C)c(=O)n2c1 | A (A denotes >20-fold) |
| Cc1cc(C(C)Nc2ccccc2C(=O)O)c2nc(-c3ccc(CC4CCN(C(=O)C5CC5)CC4)c(F)c3)c(C)c(=O)n2c1 (stereo not drawn) | A (A denotes >20-fold) |
| Cc1cc([C@H](C)Nc2ccccc2C(=O)O)c2nc(-c3ccc(C(=O)NO)cc3)cc(=O)n2c1 | C (C denotes ≤5-fold) |
| CC(=O)Cc1cc2ccc(-c3cc(=O)n4cc(C)cc(C(C)Nc5ccccc5C(=O)O)c4n3)cn2n1 (stereo not drawn) | C (C denotes ≤5-fold) |
